# Test system: Escherichia coli
# Assay Info: Antibacterial activity against Escherichia coli B3704 after overnight incubation by microdilution method
# Assay type: functional
Entries and their MIC

The cases that follow already have their MIC on record.
Nc1nnc(-c2ccccc2)c2c(-c3ccccc3)n(-c3ccccc3)nc12 | 512 µg/mL
O=C(N[C@H](CO)[C@H](O)c1ccc([N+](=O)[O-])cc1)C(Cl)Cl [CHLORAMPHENICOL] | 6 µg/mL
O=c1onc(-c2ccccc2)c2c(-c3ccccc3)n(-c3ccccc3)nc12 | 512 µg/mL

Briefly, MIC measured for `NS(=O)(=O)NC(=O)c1nn(-c2ccccc2)c(-c2ccccc2)c1C(=O)c1ccccc1` : 32 µg/mL

Briefly, MIC measured for `N#Cc1nn(-c2ccccc2)c(-c2ccccc2)c1C(=O)c1ccccc1` : 512 µg/mL

----------
# System: Klebsiella pneumoniae
# Assay Info: Antibacterial activity against Klebsiella pneumoniae A137 after overnight incubation by microdilution method
# Type: functional
Activity calls are given as the source filed them. The rule behind the calls is not given here.
Measurement Type: MIC

The cases that follow already have their MIC on record.
O=c1onc(-c2ccccc2)c2c(-c3ccccc3)n(-c3ccccc3)nc12 | inactive
Nc1nnc(-c2ccccc2)c2c(-c3ccccc3)n(-c3ccccc3)nc12 | inactive
N#Cc1nn(-c2ccccc2)c(-c2ccccc2)c1C(=O)c1ccccc1 | inactive
O=C(N[C@H](CO)[C@H](O)c1ccc([N+](=O)[O-])cc1)C(Cl)Cl [CHLORAMPHENICOL] | 12 µg/mL
NS(=O)(=O)NC(=O)c1nn(-c2ccccc2)c(-c2ccccc2)c1C(=O)c1ccccc1 | 32 µg/mL

Response field MIC (Klebsiella pneumoniae) for item `O=C(c1ccccc1)c1nn(-c2ccccc2)c(-c2ccccc2)c1C(=O)c1ccccc1` : inactive
